# test: Solubility, automated shake flask method with UV quantitation
# Assay type: physicochemical
# run conditions: simulated gastric fluid, thermodynamic from solid; 0.1N HCl, 2 h, room temperature

compound	solubility at 2 h
CO[C@H]1COCC[C@H]1NC1CCN(C(=O)c2ncnc(NC[C@H]3CCC[C@@H](c4ccc(C)cc4)O3)c2C)CC1.O=C(O)CC(O)(CC(=O)O)C(=O)O [citrate salt 1]	> 1000 µg/mL

----------
# test: Solubility, automated shake flask method with UV quantitation
# Type: physicochemical
# run conditions: aqueous buffer, thermodynamic from solid; McIlvaine buffer pH 2.2, 6 h, room temperature

molecule	solubility at 6 h
CO[C@H]1COCC[C@H]1NC1CCN(C(=O)c2ncnc(NC[C@H]3CCC[C@@H](c4ccc(C)cc4)O3)c2C)CC1.O=C(O)CC(O)(CC(=O)O)C(=O)O [citrate salt 1]	> 1000 µg/mL

----------
# test: Solubility, automated shake flask method with UV quantitation
# Format: physicochemical
# run conditions: simulated gastric fluid, thermodynamic from solid; 0.01N HCl, 4 h, room temperature

molecule	solubility at 4 h
CO[C@H]1COCC[C@H]1NC1CCN(C(=O)c2ncnc(NC[C@H]3CCC[C@@H](c4ccc(C)cc4)O3)c2C)CC1.O=C(O)CC(O)(CC(=O)O)C(=O)O [citrate salt 1]	> 1 mg/mL

----------
# test: Solubility, automated shake flask method with UV quantitation
# Type: physicochemical
# run conditions: aqueous buffer, thermodynamic from solid; McIlvaine buffer pH 6.0, 2 h, room temperature

compound	solubility at 2 h
CO[C@H]1COCC[C@H]1NC1CCN(C(=O)c2ncnc(NC[C@H]3CCC[C@@H](c4ccc(C)cc4)O3)c2C)CC1.O=C(O)CC(O)(CC(=O)O)C(=O)O [citrate salt 1]	> 1000 µg/mL

----------
# test: Intravenous pharmacokinetics in dog
# Type: in vivo, beagle dogs
# run conditions: male, beagle, plasma, 5 umol/kg, IV dose 5 μmol/kg, mean values
measured parameter: AUC(0-inf) (µM·h)

                                smiles_code  readout_value
0  CO[C@H]1COCC[C@H]1NC1CCN(C(=O)c2ncnc(NC[C@H]3CCC[C@@H](c4ccc(C)cc4)O3)c2C)CC1           5.99

----------
# test: Solubility, automated shake flask method with UV quantitation
# Format: physicochemical
# run conditions: aqueous buffer, thermodynamic from solid; McIlvaine buffer pH 4.5, 6 h, room temperature

molecule	solubility at 6 h
CO[C@H]1COCC[C@H]1NC1CCN(C(=O)c2ncnc(NC[C@H]3CCC[C@@H](c4ccc(C)cc4)O3)c2C)CC1.O=C(O)CC(O)(CC(=O)O)C(=O)O [citrate salt 1]	> 1000 µg/mL

----------
# test: Intravenous pharmacokinetics in dog
# Assay type: in vivo, beagle dogs
# run conditions: male, beagle, plasma, 5 umol/kg, IV dose 5 μmol/kg, mean values, read-out: Vss
measured parameter: Vd (L/kg)

                                smiles_code  measured_parameter  unit_symbol  readout_value
0  CO[C@H]1COCC[C@H]1NC1CCN(C(=O)c2ncnc(NC[C@H]3CCC[C@@H](c4ccc(C)cc4)O3)c2C)CC1                  Vd         L/kg           4.94

----------
# test: Intravenous pharmacokinetics in mouse
# Assay type: in vivo, BALB/c mice
# run conditions: female, BALB/c, plasma, 10 umol/kg, IV dose 10 μmol/kg, mean values
measured parameter: AUC(0-inf) (µM·h)

>>> print(df.to_string())
                                   compound  readout_value
0  CO[C@H]1COCC[C@H]1NC1CCN(C(=O)c2ncnc(NC[C@H]3CCC[C@@H](c4ccc(C)cc4)O3)c2C)CC1 [compound I]           1.99

----------
# test: Solubility, automated shake flask method with UV quantitation
# Format: physicochemical
# run conditions: aqueous buffer, thermodynamic from solid; KH2PO4-buffer pH 7.4, 2 h, room temperature
measured parameter: solubility at 2 h

compound	measured parameter	readout value
CO[C@H]1COCC[C@H]1NC1CCN(C(=O)c2ncnc(NC[C@H]3CCC[C@@H](c4ccc(C)cc4)O3)c2C)CC1.O=C(O)CC(O)(CC(=O)O)C(=O)O [citrate salt 1]	solubility at 2 h	> 1000 µg/mL

----------
# assayed system: hERG-mediated potassium current (Homo sapiens, UniProt Q12809)
# Sequence (Q12809 whole entry): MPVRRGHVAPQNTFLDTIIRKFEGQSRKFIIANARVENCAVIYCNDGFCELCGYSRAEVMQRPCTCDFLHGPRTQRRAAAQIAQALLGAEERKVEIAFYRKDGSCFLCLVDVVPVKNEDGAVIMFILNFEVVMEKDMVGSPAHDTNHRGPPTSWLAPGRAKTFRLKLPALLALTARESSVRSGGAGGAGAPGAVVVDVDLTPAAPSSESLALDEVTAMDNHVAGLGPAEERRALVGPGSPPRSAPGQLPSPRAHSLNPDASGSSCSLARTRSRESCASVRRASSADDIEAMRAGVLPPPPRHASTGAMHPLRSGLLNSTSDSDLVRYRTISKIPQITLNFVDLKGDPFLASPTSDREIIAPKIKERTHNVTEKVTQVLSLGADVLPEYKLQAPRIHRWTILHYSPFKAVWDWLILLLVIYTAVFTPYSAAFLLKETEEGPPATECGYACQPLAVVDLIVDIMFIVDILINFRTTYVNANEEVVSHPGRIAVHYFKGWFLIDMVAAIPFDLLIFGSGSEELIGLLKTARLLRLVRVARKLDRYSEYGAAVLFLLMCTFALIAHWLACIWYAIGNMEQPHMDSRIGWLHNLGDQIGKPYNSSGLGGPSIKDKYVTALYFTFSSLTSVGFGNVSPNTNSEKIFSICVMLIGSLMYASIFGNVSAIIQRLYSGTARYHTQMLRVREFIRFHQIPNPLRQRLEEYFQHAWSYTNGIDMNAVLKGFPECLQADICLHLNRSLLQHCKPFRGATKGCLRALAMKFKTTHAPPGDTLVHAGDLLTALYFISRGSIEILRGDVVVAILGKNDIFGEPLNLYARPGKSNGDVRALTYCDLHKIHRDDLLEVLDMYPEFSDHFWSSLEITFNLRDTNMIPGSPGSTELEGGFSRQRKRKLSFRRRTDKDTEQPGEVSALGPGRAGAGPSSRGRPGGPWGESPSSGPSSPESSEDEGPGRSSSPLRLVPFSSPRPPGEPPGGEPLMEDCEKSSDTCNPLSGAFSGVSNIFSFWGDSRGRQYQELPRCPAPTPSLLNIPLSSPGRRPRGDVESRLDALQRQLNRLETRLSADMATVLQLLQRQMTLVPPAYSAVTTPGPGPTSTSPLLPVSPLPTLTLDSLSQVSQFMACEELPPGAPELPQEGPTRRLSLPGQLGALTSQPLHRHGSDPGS
# test: hERG-channel assay (whole-cell patch clamp, HEK293 cells transfected with hERG cDNA)
# run conditions: HEK293 cells, whole-cell patch clamp; read-out: IC50, inhibition of hERG-mediated potassium current
# Experimental: HEK (human embryonic kidney) 293 cells were stably transfected with hERG cDNA. Cells determined for use in patch clamp experiments were cultivated without antibiotic. […] Membrane currents were recorded using an EPC-10 patch clamp amplifier (HEKA Electronics, Lambrecht, Germany) and PatchMaster software (HEKA). […] hERG-mediated membrane currents were recorded at typically 28° C., using the whole-cell configuration of the patch-clamp technique. […]
measured parameter: IC50

>>> print(df.to_string())
                                smiles_code                            assayed_system  readout_value
0  CO[C@H]1COCC[C@H]1NC1CCN(C(=O)c2ncnc(NC[C@H]3CCC[C@@H](c4ccc(C)cc4)O3)c2C)CC1  hERG-mediated potassium current (Homo sapiens, UniProt Q12809)        > 30 µM

----------
# test: Solubility, automated shake flask method with UV quantitation
# Assay type: physicochemical
# run conditions: aqueous buffer, thermodynamic from solid; McIlvaine buffer pH 2.2, 2 h, room temperature

compound	solubility at 2 h
CO[C@H]1COCC[C@H]1NC1CCN(C(=O)c2ncnc(NC[C@H]3CCC[C@@H](c4ccc(C)cc4)O3)c2C)CC1.O=C(O)CC(O)(CC(=O)O)C(=O)O [citrate salt 1]	> 1 mg/mL

----------
# test: Solubility, automated shake flask method with UV quantitation
# Type: physicochemical
# run conditions: thermodynamic from solid; Water, 4 h, room temperature
measured parameter: solubility at 4 h

compound	measured parameter	readout value
CO[C@H]1COCC[C@H]1NC1CCN(C(=O)c2ncnc(NC[C@H]3CCC[C@@H](c4ccc(C)cc4)O3)c2C)CC1.O=C(O)CC(O)(CC(=O)O)C(=O)O [citrate salt 1]	solubility at 4 h	> 1000 µg/mL

----------
# test: Solubility, automated shake flask method with UV quantitation
# Format: physicochemical
# run conditions: aqueous buffer, thermodynamic from solid; McIlvaine buffer pH 4.0, 2 h, room temperature
measured parameter: solubility at 2 h

molecule	readout value
CO[C@H]1COCC[C@H]1NC1CCN(C(=O)c2ncnc(NC[C@H]3CCC[C@@H](c4ccc(C)cc4)O3)c2C)CC1.O=C(O)CC(O)(CC(=O)O)C(=O)O [citrate salt 1]	> 1000 µg/mL

----------
# test: Solubility, automated shake flask method with UV quantitation
# Type: physicochemical
# run conditions: aqueous buffer, thermodynamic from solid; McIlvaine buffer pH 3.0, 2 h, room temperature

molecule	solubility at 2 h
CO[C@H]1COCC[C@H]1NC1CCN(C(=O)c2ncnc(NC[C@H]3CCC[C@@H](c4ccc(C)cc4)O3)c2C)CC1.O=C(O)CC(O)(CC(=O)O)C(=O)O [citrate salt 1]	> 1000 µg/mL

----------
# test: Solubility, automated shake flask method with UV quantitation
# Type: physicochemical
# run conditions: aqueous buffer, thermodynamic from solid; McIlvaine buffer pH 6.0, 6 h, room temperature
# Protocol: Solubility was determined using an automated shake flask method (at room temperature) and quantitation of the dissolved drug substance was determined by UV-spectroscopy within this automated setup.

molecule	solubility at 6 h
CO[C@H]1COCC[C@H]1NC1CCN(C(=O)c2ncnc(NC[C@H]3CCC[C@@H](c4ccc(C)cc4)O3)c2C)CC1.O=C(O)CC(O)(CC(=O)O)C(=O)O [citrate salt 1]	> 1000 µg/mL

----------
# test: Solubility, automated shake flask method with UV quantitation
# Assay type: physicochemical
# run conditions: aqueous buffer, thermodynamic from solid; McIlvaine buffer pH 5.0, 6 h, room temperature
measured parameter: solubility at 6 h

molecule	measured parameter	readout value
CO[C@H]1COCC[C@H]1NC1CCN(C(=O)c2ncnc(NC[C@H]3CCC[C@@H](c4ccc(C)cc4)O3)c2C)CC1.O=C(O)CC(O)(CC(=O)O)C(=O)O [citrate salt 1]	solubility at 6 h	> 1000 µg/mL

----------
# test: Solubility, automated shake flask method with UV quantitation
# Type: physicochemical
# run conditions: aqueous buffer, thermodynamic from solid; McIlvaine buffer pH 6.8, 6 h, room temperature

molecule	solubility at 6 h
CO[C@H]1COCC[C@H]1NC1CCN(C(=O)c2ncnc(NC[C@H]3CCC[C@@H](c4ccc(C)cc4)O3)c2C)CC1.O=C(O)CC(O)(CC(=O)O)C(=O)O [citrate salt 1]	> 1000 µg/mL

----------
# test: Solubility, automated shake flask method with UV quantitation
# Format: physicochemical
# run conditions: aqueous buffer, thermodynamic from solid; McIlvaine buffer pH 6.8, 2 h, room temperature

compound	solubility at 2 h
CO[C@H]1COCC[C@H]1NC1CCN(C(=O)c2ncnc(NC[C@H]3CCC[C@@H](c4ccc(C)cc4)O3)c2C)CC1.O=C(O)CC(O)(CC(=O)O)C(=O)O [citrate salt 1]	> 1000 µg/mL
